Experiment: Biodistribution of ^111In-labeled peptides in B16-F1 melanoma-bearing mice
Format: in vivo, mouse (B6D2F1)
Details: female, B6D2F1 (C57BL/6 × DBA/2F1 hybrids), mouse, blood, iv, total radioactivity; ^111In-labeled peptide, 185 kBq i.v., 4 h; mean ± SEM of three experiments, n = 5 animals each; read-out: Blood uptake
Non-standard residues stand in square brackets, D forms with d. Residues, ends and D or L forms follow the SMILES beside them. *: point of attachment. DOTA = O=C(O)CN1CCN(CC(=O)O)CCN(CC(=O)*)CCN(CC(=O)O)CC1; pY = N[C@@H](Cc1ccc(OP(=O)(O)O)cc1)C(=O)O; Nle = CCCC[C@H](N)C(=O)O
Let's look at some compounds and their measured tissue uptake at 4 h.

compound | tissue uptake at 4 h [%ID/g]
CCCC[C@H](NC(C)=O)C(=O)N[C@@H](CC(=O)O)C(=O)N[C@@H](Cc1c[nH]cn1)C(=O)N[C@H](Cc1ccccc1)C(=O)N[C@@H](CCCNC(=N)N)C(=O)N[C@@H](Cc1c[nH]c2ccccc12)C(=O)NCC(=O)N[C@@H](CCCCNC(=O)CN1CCN(CC(=O)O)CCN(CC(=O)O)CCN(CC(=O)O)CC1)C(=O)N[C@H](CC(=O)O)C(=O)N[C@H](CC(=O)O)C(=O)O [DOTA-NAP-D-Asp-D-Asp] (Ac-[Nle]DH[dF]RWGK(DOTA)[dD][dD]-OH) | 0.01
CCCC[C@H](NC(C)=O)C(=O)N[C@@H](CC(=O)O)C(=O)N[C@@H](Cc1c[nH]cn1)C(=O)N[C@H](Cc1ccccc1)C(=O)N[C@@H](CCCNC(=N)N)C(=O)N[C@@H](Cc1c[nH]c2ccccc12)C(=O)NCC(=O)N[C@@H](CCCCNC(=O)CN1CCN(CC(=O)O)CCN(CC(=O)O)CCN(CC(=O)O)CC1)C(N)=O [DOTA-NAP-amide, reference compound] | 0.09
CCCC[C@H](NC(=O)[C@H](Cc1ccc(OP(=O)(O)O)cc1)NC(=O)CNC(=O)CN1CCN(CC(=O)O)CCN(CC(=O)O)CCN(CC(=O)O)CC1)C(=O)N[C@@H](CC(=O)O)C(=O)N[C@@H](Cc1c[nH]cn1)C(=O)N[C@H](Cc1ccccc1)C(=O)N[C@@H](CCCNC(=N)N)C(=O)N[C@@H](Cc1c[nH]c2ccccc12)C(N)=O [DOTA-Phospho-MSH2-9] ({DOTA}-G[pY][Nle]DH[dF]RW-NH2) | 0.02

----------
Let's look at some compounds and their measured tissue uptake at 48 h.
Test: Biodistribution of ^111In-labeled peptides in B16-F1 melanoma-bearing mice
Assay type: in vivo, mouse (B6D2F1)
Settings: female, B6D2F1 (C57BL/6 × DBA/2F1 hybrids), mouse, bone, iv, total radioactivity; ^111In-labeled peptide, 185 kBq i.v., 48 h; mean ± SEM of three experiments, n = 5 animals each; read-out: Bone uptake
Non-standard residues stand in square brackets, D forms with d. Residues, ends and D or L forms follow the SMILES beside them. *: point of attachment. DOTA = O=C(O)CN1CCN(CC(=O)O)CCN(CC(=O)*)CCN(CC(=O)O)CC1; pY = N[C@@H](Cc1ccc(OP(=O)(O)O)cc1)C(=O)O; Nle = CCCC[C@H](N)C(=O)O
assay.readout: tissue uptake at 48 h (%ID/g)

compound | assay.readout | unit.info | reported
CCCC[C@H](NC(C)=O)C(=O)N[C@@H](CC(=O)O)C(=O)N[C@@H](Cc1c[nH]cn1)C(=O)N[C@H](Cc1ccccc1)C(=O)N[C@@H](CCCNC(=N)N)C(=O)N[C@@H](Cc1c[nH]c2ccccc12)C(=O)NCC(=O)N[C@@H](CCCCNC(=O)CN1CCN(CC(=O)O)CCN(CC(=O)O)CCN(CC(=O)O)CC1)C(=O)N[C@H](CC(=O)O)C(=O)N[C@H](CC(=O)O)C(=O)O [DOTA-NAP-D-Asp-D-Asp] (Ac-[Nle]DH[dF]RWGK(DOTA)[dD][dD]-OH) | tissue uptake at 48 h | %ID/g | 0.07
CCCC[C@H](NC(C)=O)C(=O)N[C@@H](CC(=O)O)C(=O)N[C@@H](Cc1c[nH]cn1)C(=O)N[C@H](Cc1ccccc1)C(=O)N[C@@H](CCCNC(=N)N)C(=O)N[C@@H](Cc1c[nH]c2ccccc12)C(=O)NCC(=O)N[C@@H](CCCCNC(=O)CN1CCN(CC(=O)O)CCN(CC(=O)O)CCN(CC(=O)O)CC1)C(N)=O [DOTA-NAP-amide, reference compound] | tissue uptake at 48 h | %ID/g | 0.05
CCCC[C@H](NC(=O)[C@H](Cc1ccc(OP(=O)(O)O)cc1)NC(=O)CNC(=O)CN1CCN(CC(=O)O)CCN(CC(=O)O)CCN(CC(=O)O)CC1)C(=O)N[C@@H](CC(=O)O)C(=O)N[C@@H](Cc1c[nH]cn1)C(=O)N[C@H](Cc1ccccc1)C(=O)N[C@@H](CCCNC(=N)N)C(=O)N[C@@H](Cc1c[nH]c2ccccc12)C(N)=O [DOTA-Phospho-MSH2-9] ({DOTA}-G[pY][Nle]DH[dF]RW-NH2) | tissue uptake at 48 h | %ID/g | 0.06

The reported numbers originate from paper PMC5405074.
